Reference for the values: ChEMBL document CHEMBL1909046

Test: DRUGMATRIX: Phorbol Ester radioligand binding (ligand: [3H] PDBu)
Format: cell membranes, Mus musculus, ICR, Brain, Membrane
Details: Not Active = under 50% inhibition at 10 µM
quantity.name: IC50

Record excerpt, results attached:
O=C1OC2(c3ccc(O)cc3Oc3cc(O)ccc32)c2ccccc21    Not Active
Cn1cnc([N+](=O)[O-])c1Sc1ncnc2nc[nH]c12    Not Active
CCC[C@@H]1C[C@@H](C(=O)N[C@@H]([C@H]2O[C@H](SC)[C@H](O)[C@@H](O)[C@H]2O)[C@@H](C)O)N(C)C1    Not Active
CCCSc1ccc2nc(NC(=O)OC)[nH]c2c1    Not Active
CC(C)(Oc1ccc(CCNC(=O)c2ccc(Cl)cc2)cc1)C(=O)O [BEZAFIBRATE]    Not Active

Q. GET /values?readout=IC50&item= O=C1OCCN1/N=C/c1ccc([N+](=O)[O-])o1
A. Not Active

====

Target: 5-hydroxytryptamine receptor 2C (Homo sapiens, UniProt P28335)
Sequence (P28335 whole entry): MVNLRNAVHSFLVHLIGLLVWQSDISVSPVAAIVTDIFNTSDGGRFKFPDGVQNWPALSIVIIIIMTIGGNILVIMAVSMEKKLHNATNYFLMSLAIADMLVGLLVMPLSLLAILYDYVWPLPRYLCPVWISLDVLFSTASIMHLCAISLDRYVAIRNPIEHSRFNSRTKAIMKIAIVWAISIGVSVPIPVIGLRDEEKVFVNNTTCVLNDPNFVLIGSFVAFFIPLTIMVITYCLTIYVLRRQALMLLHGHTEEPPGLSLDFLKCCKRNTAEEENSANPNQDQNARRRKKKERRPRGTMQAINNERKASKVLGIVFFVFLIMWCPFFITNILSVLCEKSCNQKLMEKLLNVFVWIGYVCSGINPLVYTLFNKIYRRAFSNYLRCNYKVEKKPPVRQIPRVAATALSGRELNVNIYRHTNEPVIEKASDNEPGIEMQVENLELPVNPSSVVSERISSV
Assay: DRUGMATRIX: Serotonin (5-Hydroxytryptamine) 5-HT2C radioligand binding (ligand: [3H] Mesulergine)
Type: cell membranes, CHO-K1, Membrane
Settings: Not Active = under 50% inhibition at 10 µM; read-out: IC50
Please respond with reported pIC50 for every item in the list.
Lab note — pIC50 values are minus log10 of concentrations in M.

Q. Requested read-out pIC50, target or system 5-hydroxytryptamine receptor 2C (Homo sapiens, UniProt P28335), entry CCCCCCCCCc1ccc(O)cc1 [4-NONYLPHENOL]
A. 5.59

Q. Requested read-out pIC50, target or system 5-hydroxytryptamine receptor 2C (Homo sapiens, UniProt P28335), entry Oc1c(Cl)cc(Cl)cc1Sc1cc(Cl)cc(Cl)c1O [BITHIONOL]
A. 5.06

Q. Requested read-out pIC50, target or system 5-hydroxytryptamine receptor 2C (Homo sapiens, UniProt P28335), entry COC(=O)C1=C(C)NC(C)=C(C(=O)OC)C1c1ccccc1[N+](=O)[O-] [NIFEDIPINE]
A. 4.74

Q. Requested read-out pIC50, target or system 5-hydroxytryptamine receptor 2C (Homo sapiens, UniProt P28335), entry Clc1ccccc1C(c1ccccc1)(c1ccccc1)n1ccnc1 [CLOTRIMAZOLE]
A. 4.84

Q. Requested read-out pIC50, target or system 5-hydroxytryptamine receptor 2C (Homo sapiens, UniProt P28335), entry Cc1ccccc1N1CCN(CCc2nnc3n2CCCC3)CC1 [DAPIPRAZOLE]
A. 6.20

Q. Requested read-out pIC50, target or system 5-hydroxytryptamine receptor 2C (Homo sapiens, UniProt P28335), entry CN(C)CCCN1c2ccccc2CCc2ccc(Cl)cc21 [CLOMIPRAMINE]
A. 7.47

Q. Requested read-out pIC50, target or system 5-hydroxytryptamine receptor 2C (Homo sapiens, UniProt P28335), entry COc1ccc(CN(CCN(C)C)c2ccccn2)cc1 [PYRILAMINE]
A. 5.95

Q. Requested read-out pIC50, target or system 5-hydroxytryptamine receptor 2C (Homo sapiens, UniProt P28335), entry CN1C[C@H](C(=O)N[C@]2(C)O[C@@]3(O)[C@@H]4CCCN4C(=O)[C@H](Cc4ccccc4)N3C2=O)C=C2c3cccc4[nH]cc(c34)C[C@H]21 [ERGOTAMINE]
A. 7.25
